// D4 (Homo sapiens) pKi records
Just so you know, pKi here is -log10 of the concentration in molar units; reply with that number alone.

Quick note, pKi for CCN(CC)C(=O)CCN1CCN(c2ccc3c(c2)C(N(C)C(=O)OCc2ccccc2)CCC3)CC1 (centres unmarked) [MDW-1-213] landed at 6.50

Quick note, pKi for CCCN1CCN(c2ccc3c(c2)C(N(CCC)C(=O)OCc2ccccc2)CCC3)CC1 (centres unmarked) [MDW-1-196] landed at 5.60

Quick note, pKi for CCCN1CCN(c2ccc3c(c2)C(N(C)C(=O)OCc2ccccc2)CCC3)CC1 (centres unmarked) [MDW-2-76] landed at 5.18

Quick note, pKi for CCCN(C(=O)OCc1ccccc1)C1CCCc2ccc(N3CCN(CCC(=O)OCC)CC3)cc21 (centres unmarked) [MDW-1-191] landed at 5.76

* * *

Target: D1 (Homo sapiens)
Sequence (P21728 whole entry): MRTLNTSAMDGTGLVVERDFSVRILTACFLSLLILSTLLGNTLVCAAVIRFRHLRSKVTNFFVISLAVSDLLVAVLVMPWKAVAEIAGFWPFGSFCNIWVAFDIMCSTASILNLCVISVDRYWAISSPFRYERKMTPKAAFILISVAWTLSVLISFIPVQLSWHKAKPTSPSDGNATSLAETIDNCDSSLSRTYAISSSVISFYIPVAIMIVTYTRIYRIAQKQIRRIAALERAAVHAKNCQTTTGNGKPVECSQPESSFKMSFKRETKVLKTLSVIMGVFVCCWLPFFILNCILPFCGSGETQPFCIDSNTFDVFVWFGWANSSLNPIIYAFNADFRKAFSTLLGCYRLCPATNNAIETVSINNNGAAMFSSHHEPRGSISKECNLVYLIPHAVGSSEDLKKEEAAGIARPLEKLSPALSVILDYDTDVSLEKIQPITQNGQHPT
Assay: Radioligand competition binding, D1
Settings: Table 5; Cheng-Prusoff from best fit IC50; some values marked (AVE)
Please go through the items and note down their pKi.
Just so you know, pKi here is -log10 of the concentration in molar units; reply with that number alone.

Reported pKi (D1 (Homo sapiens)) for entry CCCN1CCN(c2ccc3c(c2)C(N(CCC)C(=O)OCc2ccccc2)CCC3)CC1 (centres unmarked) is 5.72

Reported pKi (D1 (Homo sapiens)) for entry CCCN1CCN(c2ccc3c(c2)C(N(C)C(=O)OCc2ccccc2)CCC3)CC1 (centres unmarked) is 6.16

Reported pKi (D1 (Homo sapiens)) for entry CN(C(=O)OCc1ccccc1)C1CCCc2ccc(N3CCN(CCCO)CC3)cc21 (centres unmarked) is 5.87

Reported pKi (D1 (Homo sapiens)) for entry CCN(CC)C(=O)CCN1CCN(c2ccc3c(c2)C(N(C)C(=O)OCc2ccccc2)CCC3)CC1 (centres unmarked) is 5.39

Reported pKi (D1 (Homo sapiens)) for entry CN(C(=O)OCc1ccccc1)C1CCCc2ccc(N3CCN(C4CCCC4)CC3)cc21 (centres unmarked) is 6.34

* * *

// H1 (Homo sapiens) Ki records
State just the number; it will be interpreted in nM.

Reported Ki (H1 (Homo sapiens)) for entry CN(Cc1ccccc1)C1CCCc2cc(N3CCOCC3)ccc21 (stereo not shown) is 118

Reported Ki (H1 (Homo sapiens)) for entry CN(Cc1cc(Cl)cc(Cl)c1)C1CCCc2ccc(N3CCOCC3)cc21 (stereo not shown) is 182

Reported Ki (H1 (Homo sapiens)) for entry CCCN1CCN(c2ccc3c(c2)C(N(C)C(=O)OCc2ccccc2)CCC3)CC1 (stereo not shown) is 20

Reported Ki (H1 (Homo sapiens)) for entry CN(C(=O)OCc1ccccc1)C1CCCc2ccc(N3CCN(C4CCCC4)CC3)cc21 (stereo not shown) is 28

* * *

// 5-ht5a (Homo sapiens, UniProt P47898) Ki records
State just the number; it will be interpreted in nM.

Quick note, Ki for CN(C(=O)OCc1ccccc1)C1CCCc2ccc(N3CCN(C4CCCC4)CC3)cc21 (stereo not shown) landed at 2500

Quick note, Ki for CCN(CC)C(=O)CCN1CCN(c2ccc3c(c2)C(N(C)C(=O)OCc2ccccc2)CCC3)CC1 (stereo not shown) landed at 1880

Quick note, Ki for CCCN(C(=O)OCc1ccccc1)C1CCCc2ccc(N3CCN(CCC(=O)OCC)CC3)cc21 (stereo not shown) landed at 1530

* * *

Target: Alpha2B (Homo sapiens, UniProt P18089)
Sequence (P18089 1-450): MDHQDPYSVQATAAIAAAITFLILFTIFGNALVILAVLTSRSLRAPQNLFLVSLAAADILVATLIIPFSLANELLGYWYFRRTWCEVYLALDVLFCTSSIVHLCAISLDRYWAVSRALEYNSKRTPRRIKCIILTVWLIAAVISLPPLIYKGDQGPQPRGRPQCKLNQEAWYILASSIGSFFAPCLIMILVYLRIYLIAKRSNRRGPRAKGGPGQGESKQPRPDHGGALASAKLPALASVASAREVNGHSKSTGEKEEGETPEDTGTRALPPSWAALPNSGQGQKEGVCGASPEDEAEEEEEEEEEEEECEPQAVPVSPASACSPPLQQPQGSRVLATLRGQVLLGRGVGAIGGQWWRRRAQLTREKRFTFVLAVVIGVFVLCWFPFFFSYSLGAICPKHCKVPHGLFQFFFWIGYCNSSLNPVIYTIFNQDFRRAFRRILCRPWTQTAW
assay_readout: pKi
Just so you know, pKi here is -log10 of the concentration in molar units; reply with that number alone.

Quick note, pKi for CN(CCCO)C1CCCc2ccc(-c3ccc(C(F)(F)F)cc3)cc21 (centres unmarked) [MDW-1-144] landed at 6.28

Quick note, pKi for CCCN1CCN(c2ccc3c(c2)C(N(C)C(=O)OCc2ccccc2)CCC3)CC1 (centres unmarked) [MDW-2-76] landed at 5.48
